Reported inhibition of the nicotinamide effect values for the following molecules.
method: rescue of nicotinamide-shortened yeast lifespan – S. cerevisiae, OD615, primary screen (AID 775);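 also: 0% = nicotinamide-treated wells and 100% = cells grown without nicotinamide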
conditionLabel: S. cerevisiae growth with nicotinamide, at 10 µM, stronger effect = higher value, deaD strain in restrictive glucose medium
The whole screen tested about 130,000 compounds, of which about 900 (0.69%) were called active. This is one part of a sample in which actives are shown more often than they occur.
Provide the reading as a plain figure in %.

Worked cases, inhibition of the nicotinamide effect given:
[
  {
    "molecule": "O=C(CCCN1C(=O)/C(=C/c2ccco2)SC1=S)Nc1ccccc1",
    "uom": "%",
    "inhibition of the nicotinamide effect": 4.28
  },
  {
    "molecule": "CC(C)(C)OC(=O)N/N=C/c1ccc(C(=O)O)cc1",
    "uom": "%",
    "inhibition of the nicotinamide effect": -2.34
  },
  {
    "molecule": "COc1ccccc1NC(=O)CCCc1c[nH]c2ccccc12",
    "uom": "%",
    "inhibition of the nicotinamide effect": -7.92
  },
  {
    "molecule": "O=C(O)C1CC(=O)N(Cc2cccnc2)C1 (stereo not drawn)",
    "uom": "%",
    "inhibition of the nicotinamide effect": -1.28
  },
  {
    "molecule": "N#CCSc1nc2ccccc2c(=O)n1-c1ccccc1",
    "uom": "%",
    "inhibition of the nicotinamide effect": -7.51
  }
]

Query string: Please report inhibition of the nicotinamide effect for the following molecule: Cc1cccc(N2C(=O)SC(SC(=Nc3ccccc3)Nc3ccccc3)C2=O)c1 (stereo not drawn)
Result string: 7.31

Query string: Please report inhibition of the nicotinamide effect for the following molecule: O=c1c2ccccc2nc(CSc2nnnn2-c2ccccc2)n1-c1ccccc1
Result string: -5.7

Query string: Please report inhibition of the nicotinamide effect for the following molecule: O=C1CCCC(O)=C1N=Nc1ccc2ncsc2c1
Result string: -3.17

Query string: Please report inhibition of the nicotinamide effect for the following molecule: O=C(CN1C(=O)CCC1=O)Nc1ccc(S(=O)(=O)N2CCOCC2)cc1
Result string: -14.7

Query string: Please report inhibition of the nicotinamide effect for the following molecule: COc1ccc(C(CC(=O)c2ccccc2)S(=O)(=O)c2ccccc2)cc1 (stereo not drawn)
Result string: -1.04

Query string: Please report inhibition of the nicotinamide effect for the following molecule: CC(NC(=S)Nc1ccc(S(N)(=O)=O)cc1)c1ccc2c(c1)OCO2 (stereo not drawn)
Result string: -4.33

Query string: Please report inhibition of the nicotinamide effect for the following molecule: Cc1cc(/C=C2/NC(=O)NC2=O)c(C)n1-c1cccnc1
Result string: -0.65

Query string: Please report inhibition of the nicotinamide effect for the following molecule: CCOC(=O)c1c(NC(=O)Cn2nc(C(F)(F)F)cc2C)sc2c1CCC2
Result string: -3.99

Query string: Please report inhibition of the nicotinamide effect for the following molecule: Cc1c(NS(=O)(=O)c2ccc(NC3CCCC3)c([N+](=O)[O-])c2)c(=O)n(-c2ccccc2)n1C
Result string: -2.8

Query string: Please report inhibition of the nicotinamide effect for the following molecule: Cn1c(=O)c(Sc2ccc(Cl)cc2)c(O)c2ccccc21
Result string: 29.7
